The measurements presented in this section are drawn from patent US11352350B2.

DC50 overview
Target: IRAK4 (Homo sapiens (Human), UniProt Q9NWZ3)
Sequence (Q9NWZ3 whole entry): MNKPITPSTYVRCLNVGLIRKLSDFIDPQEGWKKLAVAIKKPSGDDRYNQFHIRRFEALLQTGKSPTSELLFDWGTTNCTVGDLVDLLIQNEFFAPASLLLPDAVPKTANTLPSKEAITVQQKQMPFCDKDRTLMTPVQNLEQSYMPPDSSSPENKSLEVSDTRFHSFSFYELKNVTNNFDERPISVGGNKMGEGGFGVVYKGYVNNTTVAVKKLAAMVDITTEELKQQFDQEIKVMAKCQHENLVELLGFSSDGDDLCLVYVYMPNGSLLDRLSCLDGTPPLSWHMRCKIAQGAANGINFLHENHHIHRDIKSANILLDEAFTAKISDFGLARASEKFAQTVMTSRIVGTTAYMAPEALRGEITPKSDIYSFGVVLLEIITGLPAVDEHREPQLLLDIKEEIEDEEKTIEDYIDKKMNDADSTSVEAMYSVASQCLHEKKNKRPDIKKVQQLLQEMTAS
Assay: IRAK4 MSD degradation in OCI-LY10
Type: cell-based
Settings: OCI-LY10, 4 hrs, MSD; read-out: IRAK4 MSD degradation in OCI-LY10 at 4 hrs: Average external-Abs DC50
Protocol: Degradation of IRAK4 in OCI-LY10 was quantitatively measured using Meso Scale Discovery technology. […] Compounds were then added to the assay plates with a final top concentration of 1 to 10 μM in a 1:3 dilution series with total of 8 doses. […] The assay plates were then incubated at room temperature for 1 hour, washed 3 times with 150 μL/well TB ST buffer, and 150 μL/well MSD reading buffer (Meso Scale Discovery catalog number R92TC-2) was added. […]

# compound, DC50
data = [
    ("CN(CCC1CCN(C(=O)c2ccc(CNCc3ccc(-c4ccc5c(cnn5CC5CC5)c4)cc3)cc2)CC1)C[C@H]1CC[C@H](n2cc(NC(=O)c3coc(-c4ccnc(NCC5CC5)c4)n3)c(C(F)F)n2)CC1 [I-134]", "> 1000 nM"),
    ("CN(C[C@H]1CC[C@H](n2cc(NC(=O)c3cnn4ccc(N5CCOCC5)nc34)c(C(F)F)n2)CC1)C1CCN(Cc2cccc3c2n(C)c(=O)n3C2CCC(=O)NC2=O)CC1 (stereo partly shown) [I-213]", "< 10 nM"),
    ("CN(Cc1ccc(CCNc2cccc3c2C(=O)N(C2CCC(=O)NC2=O)C3=O)cc1)C[C@H]1CC[C@H](n2cc(NC(=O)c3cnn4ccc(N5C[C@H]6C[C@@H]5CO6)nc34)c(C(F)F)n2)CC1 (stereo partly shown) [I-341]", "100 to 1000 nM"),
    ("Cn1c(=O)n(C2CCC(=O)NC2=O)c2cccc(CCCOC3CCN(C[C@H]4CC[C@H](n5cc(NC(=O)c6cnn7ccc(N8CCC(O)CC8)nc67)c(C(F)F)n5)CC4)CC3)c21 (stereo partly shown) [I-157]", "< 10 nM"),
    ("N#CCc1ccc2c(NC3CCC(N4CCN(C(=O)COCCOCCOCCNc5cccc6c5C(=O)N(C5CCC(=O)NC5=O)C6=O)CC4)CC3)ncnc2c1 (stereo not shown) [I-51]", "> 1000 nM"),
]

// query DC50 value for entry Cn1c(=O)n(C2CCC(=O)NC2=O)c2cccc(C#CCN3CCC4(CC3)CN(C(=O)[C@H]3CC[C@H](n5cc(NC(=O)c6cnn7ccc(N8C[C@H]9C[C@@H]8CO9)nc67)c(C(F)F)n5)CC3)C4)c21 (stereo partly shown) [I-418]
10 to 100 nM

Another: O=C1CCC(n2c3cccc(CCCOC4CCN(C[C@H]5CC[C@H](n6cc(NC(=O)c7cnn8ccc(N9CCOCC9)nc78)c(C(F)F)n6)CC5)CC4)c3c3cccnc32)C(=O)N1 (stereo partly shown) [I-196]
10 to 100 nM

Same question for O=C1CCC(N2C(=O)c3cccc(NCCc4ccc(CCNC[C@H]5CC[C@H](n6cc(NC(=O)c7cnn8ccc(N9C[C@H]%10C[C@@H]9CO%10)nc78)c(C(F)F)n6)CC5)cc4)c3C2=O)C(=O)N1 (stereo partly shown) [I-346] please.
> 1000 nM

Then what about the compound Cn1c(=O)n(C2CCC(=O)NC2=O)c2cccc(CC3CC4(CCN(C(=O)c5ccc(-n6cc(NC(=O)c7cnn8ccc(N9C[C@H]%10C[C@@H]9CO%10)nc78)c(C(F)F)n6)cc5)CC4)C3)c21 (stereo partly shown) [I-423] ?
100 to 1000 nM

// next record Cn1c(=O)n(C2CCC(=O)NC2=O)c2cccc(CCCOC3CCN(C[C@H]4CC[C@H](n5cc(NC(=O)c6coc(-c7ccnc(NCC8CC8)c7)n6)c(C(F)F)n5)CC4)CC3)c21 (stereo partly shown) [I-48]
< 10 nM
